Listed below: kinase still bound, per cent of control values for each entry.
- measuredTarget: TIE1 (human) (UniProt P35590)
- Sequence (P35590 whole entry, looked up): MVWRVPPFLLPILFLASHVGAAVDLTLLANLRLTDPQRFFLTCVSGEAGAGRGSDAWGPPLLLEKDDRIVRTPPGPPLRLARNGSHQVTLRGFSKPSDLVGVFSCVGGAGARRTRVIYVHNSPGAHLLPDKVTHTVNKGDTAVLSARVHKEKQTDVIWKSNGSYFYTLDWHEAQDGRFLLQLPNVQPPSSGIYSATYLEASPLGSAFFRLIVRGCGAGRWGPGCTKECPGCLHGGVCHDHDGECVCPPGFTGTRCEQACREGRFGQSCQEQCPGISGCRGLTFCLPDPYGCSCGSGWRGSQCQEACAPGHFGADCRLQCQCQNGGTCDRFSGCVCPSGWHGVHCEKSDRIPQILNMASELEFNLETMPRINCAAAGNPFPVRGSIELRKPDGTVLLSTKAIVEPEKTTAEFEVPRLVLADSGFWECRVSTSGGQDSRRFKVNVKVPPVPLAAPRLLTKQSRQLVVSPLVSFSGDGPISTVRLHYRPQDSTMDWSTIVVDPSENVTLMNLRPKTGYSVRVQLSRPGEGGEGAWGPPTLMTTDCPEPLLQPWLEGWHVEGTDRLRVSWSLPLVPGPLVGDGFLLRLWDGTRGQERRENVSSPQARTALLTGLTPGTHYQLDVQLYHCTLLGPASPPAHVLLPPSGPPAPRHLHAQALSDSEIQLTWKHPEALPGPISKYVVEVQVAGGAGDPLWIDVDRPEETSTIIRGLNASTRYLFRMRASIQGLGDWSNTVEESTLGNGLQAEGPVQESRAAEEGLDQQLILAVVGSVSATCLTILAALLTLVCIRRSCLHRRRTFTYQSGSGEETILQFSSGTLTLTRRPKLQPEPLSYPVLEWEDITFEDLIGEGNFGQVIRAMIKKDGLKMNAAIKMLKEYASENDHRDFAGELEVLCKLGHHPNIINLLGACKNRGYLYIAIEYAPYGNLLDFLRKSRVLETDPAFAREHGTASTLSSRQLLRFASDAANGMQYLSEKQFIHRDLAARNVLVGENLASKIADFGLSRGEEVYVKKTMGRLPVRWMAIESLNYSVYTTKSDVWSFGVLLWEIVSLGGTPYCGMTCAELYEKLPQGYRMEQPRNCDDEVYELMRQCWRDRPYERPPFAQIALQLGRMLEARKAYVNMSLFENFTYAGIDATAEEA
- methodSummary: KINOMEscan competition binding
- recordedConditions: compound 10.0 µM
Respond numerically; units are % and should not be typed.

Requested field: kinase still bound, per cent of control. Item: COc1cc(C)c(Sc2cnc(NC(=O)c3ccc(CNC(C)C(C)C)cc3)s2)cc1C(=O)N1CCN(C(C)=O)CC1 (stereo unspecified)
11

Requested field: kinase still bound, per cent of control. Item: N#Cc1cc(-c2ccnc(Nc3ccc(-n4cnc(-c5cccnc5)n4)cc3)n2)cc(N2CCOCC2)c1
30

Requested field: kinase still bound, per cent of control. Item: N#C/C(=C1/Nc2ccccc2S1)c1ccnc(NCCc2cccnc2)n1
100

Requested field: kinase still bound, per cent of control. Item: C=CC(=O)Nc1ccc(C(=O)c2sc(Nc3ccc(N4CCN(C)CC4)cc3OC)nc2N)cc1
67

Requested field: kinase still bound, per cent of control. Item: CCc1nc(-c2cccc(C)c2)c(-c2ccnc(NC(=O)c3ccccc3)c2)s1
96

Requested field: kinase still bound, per cent of control. Item: COc1cc(N2CCC(C(N)=O)CC2)ccc1Nc1nc(N)c(Cl)c(Nc2ccccc2S(=O)(=O)C(C)C)n1
29

Requested field: kinase still bound, per cent of control. Item: CNC(=O)Nc1ccc(-c2nc(N3CC4CCC(C3)O4)c3cnn(C4CCC5(CC4)OCCO5)c3n2)cc1
98

Requested field: kinase still bound, per cent of control. Item: CC1=C(C(=O)Nc2cc3cn[nH]c3cc2F)C(c2ccc(C(F)(F)F)cc2)CC(=O)N1 (stereo unspecified)
75

Requested field: kinase still bound, per cent of control. Item: COc1cc2c(Nc3ccc(NC(=O)c4ccccc4)cc3)ncnc2cc1OCCCN1CCOCC1
27

Requested field: kinase still bound, per cent of control. Item: CCCS(=O)(=O)Nc1ccc(F)c(C(=O)c2c[nH]c3ncc(Cl)cc23)c1F
61

Requested field: kinase still bound, per cent of control. Item: COc1ccc(N(C(=O)Oc2cc(C(=O)Nc3cccc(C(F)(F)F)c3)ccc2C)c2ccnc(Nc3ccc(N4CCN(C)CC4)cc3)n2)c(OC)c1
3.8

Requested field: kinase still bound, per cent of control. Item: CCN1CCN(Cc2ccc(NC(=O)c3ccc(C)c(/C=C/c4cnc5[nH]ccc5c4OC)c3)cc2C(F)(F)F)CC1
4.6

Requested field: kinase still bound, per cent of control. Item: COc1cc2ncnc(Nc3cccc(Cl)c3)c2cc1OC
71

Requested field: kinase still bound, per cent of control. Item: Cc1cn(-c2cc(C(=O)Nc3ccc(C)c(NC(=O)c4ccno4)c3)cc(C(F)(F)F)c2)cn1
100

Requested field: kinase still bound, per cent of control. Item: CCOc1cc(N2CCC(O)CC2)ccc1Nc1ncc2c(n1)N(C)c1ccccc1C(=O)N2C
100

Requested field: kinase still bound, per cent of control. Item: O=c1[nH]c2ccccc2n1C1CCN(Cc2ccc(-c3nc4cc5[nH]cnc5cc4nc3-c3ccccc3)cc2)CC1
100

---

- measuredTarget: RIPK4 (human) (UniProt P57078)
- Sequence (P57078 whole entry, looked up): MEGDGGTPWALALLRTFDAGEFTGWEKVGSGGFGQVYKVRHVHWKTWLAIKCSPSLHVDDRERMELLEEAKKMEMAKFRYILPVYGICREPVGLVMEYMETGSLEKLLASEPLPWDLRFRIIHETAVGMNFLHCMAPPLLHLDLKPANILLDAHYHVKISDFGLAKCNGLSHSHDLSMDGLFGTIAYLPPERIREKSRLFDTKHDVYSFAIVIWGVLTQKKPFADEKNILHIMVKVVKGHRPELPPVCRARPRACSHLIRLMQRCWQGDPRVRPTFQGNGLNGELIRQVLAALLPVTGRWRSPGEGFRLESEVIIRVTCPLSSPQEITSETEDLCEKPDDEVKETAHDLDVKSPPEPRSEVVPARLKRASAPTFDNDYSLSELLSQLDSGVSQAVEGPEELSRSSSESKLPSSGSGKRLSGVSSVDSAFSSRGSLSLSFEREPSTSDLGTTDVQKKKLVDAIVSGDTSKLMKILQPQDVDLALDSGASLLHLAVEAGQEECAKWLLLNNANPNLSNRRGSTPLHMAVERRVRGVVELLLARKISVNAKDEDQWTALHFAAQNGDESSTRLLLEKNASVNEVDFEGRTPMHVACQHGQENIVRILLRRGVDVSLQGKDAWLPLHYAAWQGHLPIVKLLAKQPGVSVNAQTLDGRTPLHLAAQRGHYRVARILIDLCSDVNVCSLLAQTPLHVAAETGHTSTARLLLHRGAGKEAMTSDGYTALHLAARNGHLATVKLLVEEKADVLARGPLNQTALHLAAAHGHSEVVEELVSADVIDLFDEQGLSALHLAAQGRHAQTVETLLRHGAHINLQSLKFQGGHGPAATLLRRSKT
- methodSummary: KINOMEscan competition binding
- recordedConditions: compound 10.0 µM
measuredEndpoint: kinase still bound, per cent of control (%)
Respond numerically; units are % and should not be typed.

                                   compound                         measuredendpoint  observedresult
0         COc1cc2ncnc(Nc3cccc(Cl)c3)c2cc1OC  kinase still bound, per cent of control              43
1  Cc1cn(-c2cc(C(=O)Nc3ccc(C)c(NC(=O)c4ccno4)c3)cc(C(F)(F)F)c2)cn1  kinase still bound, per cent of control             100
2  O=c1[nH]c2ccccc2n1C1CCN(Cc2ccc(-c3nc4cc5[nH]cnc5cc4nc3-c3ccccc3)cc2)CC1  kinase still bound, per cent of control              87
3  CCc1nc(-c2cccc(C)c2)c(-c2ccnc(NC(=O)c3ccccc3)c2)s1  kinase still bound, per cent of control              90
4  CCOc1cc(N2CCC(O)CC2)ccc1Nc1ncc2c(n1)N(C)c1ccccc1C(=O)N2C  kinase still bound, per cent of control             100

Requested field: kinase still bound, per cent of control. Item: N#C/C(=C1/Nc2ccccc2S1)c1ccnc(NCCc2cccnc2)n1
8

Requested field: kinase still bound, per cent of control. Item: CC1=C(C(=O)Nc2cc3cn[nH]c3cc2F)C(c2ccc(C(F)(F)F)cc2)CC(=O)N1 (configuration not stated)
98

Requested field: kinase still bound, per cent of control. Item: CCN(CCO)CCCOc1ccc2c(Nc3cc(CC(=O)Nc4cccc(F)c4)[nH]n3)ncnc2c1
41

Requested field: kinase still bound, per cent of control. Item: COc1cc(C)c(Sc2cnc(NC(=O)c3ccc(CNC(C)C(C)C)cc3)s2)cc1C(=O)N1CCN(C(C)=O)CC1 (configuration not stated)
100

Requested field: kinase still bound, per cent of control. Item: CCN1CCN(Cc2ccc(NC(=O)c3ccc(C)c(/C=C/c4cnc5[nH]ccc5c4OC)c3)cc2C(F)(F)F)CC1
56

Requested field: kinase still bound, per cent of control. Item: CNC(=O)Nc1ccc(-c2nc(N3CC4CCC(C3)O4)c3cnn(C4CCC5(CC4)OCCO5)c3n2)cc1
98

Requested field: kinase still bound, per cent of control. Item: CCCS(=O)(=O)Nc1ccc(F)c(C(=O)c2c[nH]c3ncc(Cl)cc23)c1F
89

Requested field: kinase still bound, per cent of control. Item: C=CC(=O)Nc1ccc(C(=O)c2sc(Nc3ccc(N4CCN(C)CC4)cc3OC)nc2N)cc1
89

Requested field: kinase still bound, per cent of control. Item: N#Cc1cc(-c2ccnc(Nc3ccc(-n4cnc(-c5cccnc5)n4)cc3)n2)cc(N2CCOCC2)c1
53

Requested field: kinase still bound, per cent of control. Item: COc1cc2c(Nc3ccc(NC(=O)c4ccccc4)cc3)ncnc2cc1OCCCN1CCOCC1
56

Requested field: kinase still bound, per cent of control. Item: COc1cc(N2CCC(C(N)=O)CC2)ccc1Nc1nc(N)c(Cl)c(Nc2ccccc2S(=O)(=O)C(C)C)n1
100

Requested field: kinase still bound, per cent of control. Item: CC(=O)c1c(C)c2cnc(Nc3ccc(N4CCNCC4)cn3)nc2n(C2CCCC2)c1=O
79
